# Measurement Protocol: in vitro
# Reported Conditions: mouse, microsomes, pH 7.4
Endpoint Label: CLint scaled at 1 μM

Query: Give reported CLint scaled at 1 μM value for "COC(=O)N[C@H](C(=O)N1CCC[C@H]1C(=O)N[C@H](B(O)O)C(C)C)C(C)C"
Reply: < 38 mL/min/kg

Query: Give reported CLint scaled at 1 μM value for "CC(C)[C@H](NC(=O)[C@@H]1CCCN1C(=O)[C@@H](NC(=O)c1ccc(C(=O)NS(=O)(=O)c2ccc(Cl)cc2)cc1)C(C)C)B(O)O"
Reply: < 38 mL/min/kg

Query: Give reported CLint scaled at 1 μM value for "CC(C)[C@H](NC(=O)[C@@H]1CCCN1C(=O)[C@@H](NC(=O)c1ccc(C(=O)NCC(=O)O)cc1)C(C)C)B(O)O"
Reply: < 38 mL/min/kg

###

# Target Of Assay: elastase in CF patient sputum (Homo sapiens (Human))
# Sequence (P08246 30-267): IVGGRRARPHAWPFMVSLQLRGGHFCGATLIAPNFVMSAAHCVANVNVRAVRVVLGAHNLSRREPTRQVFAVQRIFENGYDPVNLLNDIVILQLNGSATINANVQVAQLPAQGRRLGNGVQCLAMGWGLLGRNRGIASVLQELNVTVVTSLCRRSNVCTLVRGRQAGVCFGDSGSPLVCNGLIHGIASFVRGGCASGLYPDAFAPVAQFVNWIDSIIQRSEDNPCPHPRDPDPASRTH
# Measurement Protocol: Elastase inhibition assay in CF patient sputum
# Format: biochemical
# Reported Conditions: CF sputum
Lab note: anything with LipE at or over 6 counts as True; the rest go in False.

Query: Say whether COC(=O)C1=C(C)N(c2cccc(C(F)(F)F)c2)c2n[nH]c(=O)n2C1c1ccc(C#N)cc1 (stereo not shown) shows LipE of 6 or more.
Reply: False

Query: Say whether "Cc1c(-c2ccnn2-c2ccc(C#N)cc2)cc(C(=O)NCC(O)CNC(=O)c2cc(-c3ccnn3-c3ccc(C#N)cc3)c(C)n(-c3cccc(C(F)(F)F)c3)c2=O)c(=O)n1-c1cccc(C(F)(F)F)c1" shows LipE of 6 or more.
Reply: False

Query: Say whether COC(=O)C1=C(C)N(c2cccc(C(F)(F)F)c2)c2nn(CC(=O)N(C)CCC[N+](C)(C)C)c(=O)n2C1c1ccc(C#N)cc1 (stereo not shown) shows LipE of 6 or more.
Reply: True

Query: Say whether "CC(C)[C@H](NC(=O)[C@@H]1CCCN1C(=O)[C@@H](NC(=O)c1ccc(C(=O)NCC(=O)O)cc1)C(C)C)B(O)O" shows LipE of 6 or more.
Reply: True

Query: Say whether "CC(C)[C@H](NC(=O)[C@@H]1CCCN1C(=O)[C@@H](NC(=O)c1ccc(C(=O)NS(=O)(=O)c2ccc(Cl)cc2)cc1)C(C)C)B(O)O" shows LipE of 6 or more.
Reply: True

Query: Say whether "Cc1c(-c2ccnn2C)cc(C(=O)NCc2ccc(S(C)(=O)=O)cn2)c(=O)n1-c1cccc(C(F)(F)F)c1" shows LipE of 6 or more.
Reply: True

###

# Target Of Assay: human neutrophil elastase (Homo sapiens (Human))
# Measurement Protocol: Elastase inhibition assay, purified human neutrophil elastase
# Type: biochemical
# Reported Conditions: Purified NHE; 30 minutes incubation at room temperature; 100 μM substrate; read-out: IC50
Endpoint Label: pIC50
Just so you know, pIC50 here is -log10 of the concentration in molar units; reply with that number alone.

Query: Give reported pIC50 value for "Cc1c(-c2ccnn2-c2ccc(C#N)cc2)cc(C(=O)NCC(O)CNC(=O)c2cc(-c3ccnn3-c3ccc(C#N)cc3)c(C)n(-c3cccc(C(F)(F)F)c3)c2=O)c(=O)n1-c1cccc(C(F)(F)F)c1"
Reply: 10.95

Query: Give reported pIC50 value for "Cc1c(-c2ccnn2C)cc(C(=O)NCc2ccc(S(C)(=O)=O)cn2)c(=O)n1-c1cccc(C(F)(F)F)c1"
Reply: 8.58

Query: Give reported pIC50 value for COC(=O)C1=C(C)N(c2cccc(C(F)(F)F)c2)c2n[nH]c(=O)n2C1c1ccc(C#N)cc1 (stereo not shown)
Reply: 8.87

Query: Give reported pIC50 value for COC(=O)C1=C(C)N(c2cccc(C(F)(F)F)c2)c2nn(CC(=O)N(C)CCC[N+](C)(C)C)c(=O)n2C1c1ccc(C#N)cc1 (stereo not shown)
Reply: 9.00
